Biological target: T1, bacterially produced human IL-6 (human, UniProt P05231 30-212)
T1 construct: also called bactIL-6; prokaryotic IL-6
Assay: SPR; purified Fab; IL-6 coated on CM5 chip;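 further: dissociation rate taken from the wash phase, association rate fitted over the injection phase with analyte concentration and dissociation rate as inputs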
Reported koff values for a set of binders
Readout kind: koff (s⁻¹)

[
  {
    "Binder": "Fab 29B11 (Fab, V domains shown, Fab) VH: EVQLVESGGGLVQPGGSLRLSCAASGFTFSSYAMSWVRQAPGKGLEWVSRISSGGISTYYADSVKGRFTISRDNAKNTLYLQMNSLKPEDTAVYYCVRYAWGVQWAFDFWGQGTQVTVSS VL: QSVLTQPPSVSGSPGQTVTISCAGTSEDVGYGNYVSWYQQLPGMAPKLLIYDVNKRASGIADRFSGSKSGNTASLTISGLQSEDEADYYCASYRRTIDNIFGGGTHLTVLG",
    "Numeric readout": 0.00022
  },
  {
    "Binder": "Fab 18C9 (Fab, V domains shown, Fab) VH: EVQLVESGGGLVQPGGSLRLSCAASGFTFSRNAMSWVRQAPGKGLEWVSAINSGGGSTSYADSVKGRFTISRDNAKNTLYLQMNSLKPEDTAVYYCAKEGYTGWKDPMYDYWGQGTQVTVSS VL: LNFMLTQPSALSVTLGQTAKITCQGGSLGSRYAHWYQQKPGQAPVLVIYDDDSRPSGIPERFSGSSSGGRATLTISGAQAEDDGDYYCQSADSSGNASVFGGGTHLTVLG",
    "Numeric readout": 0.00036
  },
  {
    "Binder": "Fab 20A4 (Fab, V domains shown, Fab) VH: EVQLQESGPGLVKPSQTLSLTCTVSGGSITTRYYAWSWIRQPPGKGLEWMGVIDYDGDTYYSPSLKSRTSISWDTSKNQFSLQLSSVTPEDTAVYYCARDPDVVTGFHYDYWGQGTQVTVSS VL: LNFMLTQPPSVSGTLGKTVTISCAGTSSDIGGYNYVSWYQQLPGTAPKLLIHRVSTRASGIPDRFSGSKSGNTASLTISGLRSEDEANYYCASYRNFNNAVFGGGTQLTVLG",
    "Numeric readout": 0.00062
  }
]
